For each entry below, report its residual activity value.
- Test system: BRSK2 (human), Q8IWQ3 [S251I]
- Sequence (Q8IWQ3 whole entry, looked up, stated change not applied): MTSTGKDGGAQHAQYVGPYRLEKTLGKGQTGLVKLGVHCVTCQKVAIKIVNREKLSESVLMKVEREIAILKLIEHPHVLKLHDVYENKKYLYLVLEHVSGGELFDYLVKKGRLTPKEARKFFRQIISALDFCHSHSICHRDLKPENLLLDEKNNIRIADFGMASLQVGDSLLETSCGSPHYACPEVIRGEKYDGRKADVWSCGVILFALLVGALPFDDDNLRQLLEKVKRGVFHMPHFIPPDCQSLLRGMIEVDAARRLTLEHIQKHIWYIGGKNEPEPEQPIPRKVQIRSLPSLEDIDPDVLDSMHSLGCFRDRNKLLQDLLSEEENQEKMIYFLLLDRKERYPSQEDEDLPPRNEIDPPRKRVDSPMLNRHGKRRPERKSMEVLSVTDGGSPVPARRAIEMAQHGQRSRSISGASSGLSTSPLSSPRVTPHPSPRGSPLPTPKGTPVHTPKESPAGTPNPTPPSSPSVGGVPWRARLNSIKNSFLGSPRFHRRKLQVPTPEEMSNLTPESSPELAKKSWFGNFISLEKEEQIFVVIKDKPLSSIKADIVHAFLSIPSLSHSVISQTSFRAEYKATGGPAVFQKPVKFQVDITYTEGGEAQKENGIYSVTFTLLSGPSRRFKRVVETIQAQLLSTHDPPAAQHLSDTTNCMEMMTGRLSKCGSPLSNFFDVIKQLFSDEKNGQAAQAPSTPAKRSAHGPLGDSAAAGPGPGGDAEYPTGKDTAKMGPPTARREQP
- TEST: radiometric filter-binding kinase assay, Kinaseprofiler
- CONDITION_DESCRIPTION: compound 10.0 µM; ATP 70 µM
Numbers only, in %.

Can you look up the measured residual activity of `O=C1Nc2ccccc2/C1=C1\Nc2ccccc2\C1=N/O` for me?
5

Please give residual activity, item by item, for the list that follows.
1. CN[C@@H]1C[C@H]2O[C@@](C)([C@@H]1OC)n1c3ccccc3c3c4c(c5c6ccccc6n2c5c31)C(=O)NC4
2. O=C1c2ccccc2-c2n[nH]c3cccc1c23
3. COC(=O)[C@]1(O)C[C@@H]2O[C@@]1(C)n1c3ccccc3c3c4c(c5c6ccccc6n2c5c31)C(=O)NC4

[0, 9, 0]
